This collection of values is drawn from patent US12281057B2.

target: truncated form of human NaV 1.8 with full channel activity (Homo sapiens); test: E-VIPR Assay Method A for detecting and measuring Nav inhibition (HEK cells, membrane potential FRET dyes, electrical stimulation); type: cell-based; settings: HEK cells expressing human NaV 1.8, HS (human serum) in compound loading buffer, 11 point dose response, top dose 3 μM, Table 20A, read-out: Nav 1.8 MedChem Optical Assay EVIPR Assay Method A HS IC50
pIC50: −log10 of the molar value.
MEASUREMENT LABEL: pIC50

COc1cc(OC(F)(F)F)ccc1Oc1ccc(F)c(F)c1C(=O)Nc1ccc(F)c(C(N)=O)c1
7.74

[a] CC(C)c1cc(Oc2ccc(OC(F)(F)F)c(F)c2)c(C(=O)Nc2ccc(F)c(C(N)=O)c2)cn1
[b] NC(=O)c1cc(NC(=O)c2c(Oc3ccc(F)cc3)cccc2C(F)(F)F)ccc1F
[c] [2H]C([2H])([2H])Oc1c(Oc2ccc(C(F)(F)F)c(F)c2C(=O)Nc2ccc(C(N)=O)nc2)ccc(OC(F)(F)F)c1F
[ask] Sort these compounds on pIC50 so the largest reading comes first. Quick reminder: the answer is the labels in the order asked.
[reply] c, a, b

[1] COc1cc(F)ccc1Oc1cc(Cl)cc(Cl)c1C(=O)Nc1ccc(C(N)=O)nc1
[2] COc1cc(OC(F)(F)F)ccc1Oc1cc([C@@H]2C[C@H]2C)ncc1C(=O)Nc1ccc(F)c(C(N)=O)c1 (single isomer, unassigned)
[ask] Field: entry with larger pIC50 (options 1 / 2 ). In your reply, give the label of the chosen option.
[reply] 2
(2: 7.77, 1: 6.39)

----------
target: truncated form of human NaV 1.8 with full channel activity (Homo sapiens, UniProt Q9Y5Y9); experiment: E-VIPR Assay Method A for detecting and measuring Nav inhibition (HEK cells, membrane potential FRET dyes, electrical stimulation); format: cell-based; settings: HEK cells expressing human NaV 1.8, HS (human serum) in compound loading buffer, 11 point dose response, top dose 3 μM, Table 20A, read-out: Nav 1.8 MedChem Optical Assay EVIPR Assay Method A HS IC50
Sequence (Q9Y5Y9 126-1722 limits assumed): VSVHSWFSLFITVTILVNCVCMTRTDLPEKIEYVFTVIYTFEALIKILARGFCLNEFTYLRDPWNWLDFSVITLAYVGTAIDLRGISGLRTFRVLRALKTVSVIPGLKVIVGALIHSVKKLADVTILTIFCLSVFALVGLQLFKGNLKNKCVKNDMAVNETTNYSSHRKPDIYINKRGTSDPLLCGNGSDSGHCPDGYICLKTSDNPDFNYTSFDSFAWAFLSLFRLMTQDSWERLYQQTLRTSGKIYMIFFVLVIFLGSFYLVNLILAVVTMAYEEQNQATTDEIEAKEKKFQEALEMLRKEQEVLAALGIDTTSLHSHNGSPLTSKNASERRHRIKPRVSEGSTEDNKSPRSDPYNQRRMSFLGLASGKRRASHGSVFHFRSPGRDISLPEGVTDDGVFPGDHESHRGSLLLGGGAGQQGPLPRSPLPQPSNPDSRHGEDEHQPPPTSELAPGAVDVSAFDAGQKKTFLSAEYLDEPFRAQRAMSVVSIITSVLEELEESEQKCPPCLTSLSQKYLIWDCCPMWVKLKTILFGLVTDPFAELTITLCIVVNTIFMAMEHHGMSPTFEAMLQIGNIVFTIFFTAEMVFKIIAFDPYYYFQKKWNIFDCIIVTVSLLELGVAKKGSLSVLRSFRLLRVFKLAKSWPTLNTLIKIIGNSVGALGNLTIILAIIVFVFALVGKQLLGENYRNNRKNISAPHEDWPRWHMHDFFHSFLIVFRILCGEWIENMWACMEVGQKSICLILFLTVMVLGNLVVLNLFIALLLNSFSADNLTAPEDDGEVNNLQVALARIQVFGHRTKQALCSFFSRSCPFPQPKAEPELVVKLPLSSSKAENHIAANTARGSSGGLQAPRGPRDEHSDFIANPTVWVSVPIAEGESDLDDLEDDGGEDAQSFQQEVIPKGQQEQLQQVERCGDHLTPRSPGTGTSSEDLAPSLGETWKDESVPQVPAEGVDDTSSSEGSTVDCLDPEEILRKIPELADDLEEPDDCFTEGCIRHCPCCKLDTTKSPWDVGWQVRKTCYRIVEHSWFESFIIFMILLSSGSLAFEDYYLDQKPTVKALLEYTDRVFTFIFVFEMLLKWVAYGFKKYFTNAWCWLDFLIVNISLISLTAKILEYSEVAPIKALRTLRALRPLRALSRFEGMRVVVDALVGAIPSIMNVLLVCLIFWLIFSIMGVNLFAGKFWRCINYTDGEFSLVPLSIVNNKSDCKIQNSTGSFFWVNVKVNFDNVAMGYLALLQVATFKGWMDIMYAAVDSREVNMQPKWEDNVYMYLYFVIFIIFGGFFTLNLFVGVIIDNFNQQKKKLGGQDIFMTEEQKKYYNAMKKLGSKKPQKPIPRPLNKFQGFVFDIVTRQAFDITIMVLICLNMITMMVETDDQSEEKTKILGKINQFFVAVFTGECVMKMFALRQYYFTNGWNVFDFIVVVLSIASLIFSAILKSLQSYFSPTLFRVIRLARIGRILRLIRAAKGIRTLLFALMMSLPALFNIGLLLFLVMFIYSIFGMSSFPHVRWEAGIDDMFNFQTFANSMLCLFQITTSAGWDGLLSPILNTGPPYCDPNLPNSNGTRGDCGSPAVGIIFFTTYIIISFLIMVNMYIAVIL
pIC50: −log10 of the molar value.
MEASUREMENT LABEL: pIC50

[2H]C([2H])([2H])Oc1c(Oc2ccc(OC(F)(F)F)c(F)c2C(=O)Nc2cc(C(N)=O)ncc2C)ccc(OC(F)(F)F)c1F [Compound 231]
8.05
COc1nc(Cl)ccc1Oc1ccc(C(F)(F)F)c(F)c1C(=O)Nc1ccc(F)c(C(N)=O)c1 [Compound 54]
8.15
COc1cc(OC(F)(F)F)ccc1Oc1cc(C(F)(F)F)ncc1C(=O)Nc1ccc(F)c(C(N)=O)c1 [Compound 30]
7.70
COc1cc(OC(F)(F)F)ccc1Oc1cc([C@@H]2C[C@H]2C)ncc1C(=O)Nc1ccnc(C(N)=O)c1 (single isomer, unassigned) [Compound 112]
7.37
COc1ccc(Oc2ccc(C(F)(F)F)c(F)c2C(=O)Nc2ccnc(C(N)=O)c2)c(OC(F)(F)F)c1 [Compound 196]
7.36

[a] NC(=O)c1cc(NC(=O)c2c(Oc3ccc(OC(F)(F)F)cc3F)ccc(C(F)(F)F)c2F)ccn1 [Compound 90]
[b] COc1cc(F)ccc1Oc1cc(OC(F)(F)F)ccc1C(=O)Nc1ccnc(C(N)=O)c1 [Compound 148]
[ask] a or b : whose pIC50 is greater? Kindly give the label for the entry you pick.
[reply] a
